Can you tell me IC50 for the items I'm about to list?
target: human capsaicin receptor (Homo sapiens, UniProt Q8NER1); construct: expression consrtuct encoding the full length human capsaicin receptor; expressed in transfected cells; assay: Antagonist assay for Capsaicin receptor mediated calcium mobilization; assay type: cell-based; settings: Table VI, read-out: EC50 (the source's name)
Sequence (Q8NER1 whole entry): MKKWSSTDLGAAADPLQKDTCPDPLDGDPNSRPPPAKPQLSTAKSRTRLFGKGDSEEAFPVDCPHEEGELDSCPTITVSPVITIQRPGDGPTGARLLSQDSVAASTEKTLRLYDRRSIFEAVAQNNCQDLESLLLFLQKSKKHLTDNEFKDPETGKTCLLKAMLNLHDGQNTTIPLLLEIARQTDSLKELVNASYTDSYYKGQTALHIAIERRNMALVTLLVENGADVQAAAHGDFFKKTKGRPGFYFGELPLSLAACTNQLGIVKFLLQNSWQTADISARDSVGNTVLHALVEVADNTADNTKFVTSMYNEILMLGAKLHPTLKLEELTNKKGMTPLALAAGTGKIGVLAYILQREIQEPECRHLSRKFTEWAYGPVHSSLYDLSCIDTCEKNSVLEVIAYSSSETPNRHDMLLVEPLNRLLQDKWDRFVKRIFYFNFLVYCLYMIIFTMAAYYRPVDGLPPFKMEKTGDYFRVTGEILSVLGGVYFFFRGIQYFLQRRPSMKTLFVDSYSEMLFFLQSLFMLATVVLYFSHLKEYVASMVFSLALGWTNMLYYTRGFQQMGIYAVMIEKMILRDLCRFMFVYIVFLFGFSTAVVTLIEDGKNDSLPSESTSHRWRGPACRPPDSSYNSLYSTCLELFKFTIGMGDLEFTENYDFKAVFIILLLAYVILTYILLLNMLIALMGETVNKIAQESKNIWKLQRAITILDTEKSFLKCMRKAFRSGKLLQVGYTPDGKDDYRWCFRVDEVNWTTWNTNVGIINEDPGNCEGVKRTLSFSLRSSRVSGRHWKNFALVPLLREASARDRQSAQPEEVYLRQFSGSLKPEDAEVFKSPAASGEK

Given item "CC(C)c1ccc(NC(=S)N2CCN(c3ncccc3Cl)C[C@@H]2C)cc1" , the value recorded as its IC50 is < 1 µM

Given item "C[C@@H]1CN(c2nccnc2Cl)CCN1C(=O)Nc1ccc(C2CCCCC2)cc1" , the value recorded as its IC50 is < 1 µM

Given item "C[C@@H]1CN(c2ncccc2Cl)CCN1C(=S)Nc1ccc(C(C)(C)C)cc1" , the value recorded as its IC50 is < 1 µM

Given item "CCCCc1ccc(NC(=S)N2CCN(c3ncccc3Cl)C[C@H]2C)cc1" , the value recorded as its IC50 is < 1 µM

Given item "C[C@H]1CN(c2ncccc2Cl)CCN1C(=S)Nc1ccc(C(C)(C)C)cc1" , the value recorded as its IC50 is < 1 µM

Given item "CC(C)c1ccc(NC(=S)N2CCN(c3ncccc3Cl)C[C@H]2C)cc1" , the value recorded as its IC50 is < 1 µM
